Tested on: Serine/threonine-protein kinase D2 (Homo sapiens, UniProt Q9BZL6)
Sequence (Q9BZL6 whole entry): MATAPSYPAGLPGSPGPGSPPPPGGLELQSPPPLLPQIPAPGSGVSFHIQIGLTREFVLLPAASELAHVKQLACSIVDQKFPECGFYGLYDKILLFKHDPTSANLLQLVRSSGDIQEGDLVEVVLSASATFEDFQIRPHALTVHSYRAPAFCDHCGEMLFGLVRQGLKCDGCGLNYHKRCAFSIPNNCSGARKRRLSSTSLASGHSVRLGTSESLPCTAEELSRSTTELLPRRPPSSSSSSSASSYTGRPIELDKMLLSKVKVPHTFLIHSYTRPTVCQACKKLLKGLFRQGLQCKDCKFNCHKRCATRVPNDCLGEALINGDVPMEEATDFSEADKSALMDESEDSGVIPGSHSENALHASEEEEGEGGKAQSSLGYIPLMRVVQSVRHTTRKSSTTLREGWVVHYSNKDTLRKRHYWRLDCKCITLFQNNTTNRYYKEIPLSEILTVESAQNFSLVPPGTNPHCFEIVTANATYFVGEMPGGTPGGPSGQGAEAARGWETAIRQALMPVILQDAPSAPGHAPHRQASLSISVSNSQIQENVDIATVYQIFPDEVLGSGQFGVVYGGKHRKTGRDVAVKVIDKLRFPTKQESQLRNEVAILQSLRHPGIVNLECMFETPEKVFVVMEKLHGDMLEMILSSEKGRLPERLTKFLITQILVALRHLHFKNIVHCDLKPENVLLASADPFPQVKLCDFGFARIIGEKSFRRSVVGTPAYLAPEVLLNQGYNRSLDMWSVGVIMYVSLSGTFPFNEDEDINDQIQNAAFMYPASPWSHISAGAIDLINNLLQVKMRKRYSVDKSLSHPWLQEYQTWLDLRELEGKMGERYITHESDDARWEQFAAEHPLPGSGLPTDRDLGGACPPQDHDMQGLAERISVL
Assay protocol: Inhibition of PRKD2
Endpoint: IC50

Lookup: # IC50 lookup, item CC(C)(C)NS(=O)(=O)c1cncc(-c2ccn3nc(N)nc3c2)c1
Found: > 10 µM

====

Tested on: Mitogen-activated protein kinase kinase kinase kinase 2 (Homo sapiens)
Sequence (Q12851 whole entry): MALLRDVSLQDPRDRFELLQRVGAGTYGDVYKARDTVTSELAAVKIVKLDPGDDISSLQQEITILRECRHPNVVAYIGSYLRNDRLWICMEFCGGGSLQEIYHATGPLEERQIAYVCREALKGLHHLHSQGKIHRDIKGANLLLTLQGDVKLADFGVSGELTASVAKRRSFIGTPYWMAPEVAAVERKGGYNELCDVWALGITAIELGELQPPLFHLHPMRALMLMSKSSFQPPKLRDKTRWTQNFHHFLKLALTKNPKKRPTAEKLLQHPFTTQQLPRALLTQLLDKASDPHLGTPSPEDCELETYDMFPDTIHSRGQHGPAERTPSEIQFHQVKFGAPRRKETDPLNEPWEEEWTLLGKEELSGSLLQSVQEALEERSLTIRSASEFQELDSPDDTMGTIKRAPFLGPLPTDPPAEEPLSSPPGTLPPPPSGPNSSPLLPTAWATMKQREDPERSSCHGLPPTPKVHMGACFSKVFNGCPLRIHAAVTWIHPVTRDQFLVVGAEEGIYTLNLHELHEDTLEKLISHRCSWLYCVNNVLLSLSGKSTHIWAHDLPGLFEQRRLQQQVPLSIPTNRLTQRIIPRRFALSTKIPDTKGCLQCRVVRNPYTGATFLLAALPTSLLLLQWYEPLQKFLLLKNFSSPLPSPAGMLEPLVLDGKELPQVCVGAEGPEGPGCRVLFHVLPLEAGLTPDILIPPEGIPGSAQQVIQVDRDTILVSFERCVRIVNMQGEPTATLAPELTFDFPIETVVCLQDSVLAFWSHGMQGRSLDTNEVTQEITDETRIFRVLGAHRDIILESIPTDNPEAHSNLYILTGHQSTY
Assay protocol: Inhibition of MAP4K2
pIC50: −log10 of the molar value.
Endpoint: pIC50

Lookup: Hi! What's the reported pIC50 for CC(C)(C)NS(=O)(=O)c1cncc(-c2ccn3nc(N)nc3c2)c1 on Mitogen-activated protein kinase kinase kinase kinase 2 (Homo sapiens)?
Found: < 5.00

====

Tested on: Dual specificity mitogen-activated protein kinase kinase 2 (Homo sapiens, UniProt P36507)
Sequence (P36507 whole entry): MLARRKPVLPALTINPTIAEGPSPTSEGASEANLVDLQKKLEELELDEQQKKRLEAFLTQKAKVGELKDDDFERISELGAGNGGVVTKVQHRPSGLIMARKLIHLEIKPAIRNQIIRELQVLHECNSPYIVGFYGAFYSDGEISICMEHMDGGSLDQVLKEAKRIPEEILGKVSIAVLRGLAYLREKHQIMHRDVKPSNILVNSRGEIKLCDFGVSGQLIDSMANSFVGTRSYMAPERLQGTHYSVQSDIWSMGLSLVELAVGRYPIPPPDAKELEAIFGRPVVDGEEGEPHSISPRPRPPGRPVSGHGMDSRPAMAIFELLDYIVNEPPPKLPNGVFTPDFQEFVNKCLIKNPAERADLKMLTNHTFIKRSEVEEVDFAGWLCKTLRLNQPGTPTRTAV
Assay protocol: Inhibition of MAP2K2
pIC50: −log10 of the molar value.
Endpoint: pIC50

Lookup: pIC50 lookup needed for CC(C)(C)NS(=O)(=O)c1cncc(-c2ccn3nc(N)nc3c2)c1 , thanks.
Found: < 5.00

====

Tested on: Tyrosine-protein kinase Fgr (Homo sapiens, UniProt P09769)
Sequence (P09769 whole entry): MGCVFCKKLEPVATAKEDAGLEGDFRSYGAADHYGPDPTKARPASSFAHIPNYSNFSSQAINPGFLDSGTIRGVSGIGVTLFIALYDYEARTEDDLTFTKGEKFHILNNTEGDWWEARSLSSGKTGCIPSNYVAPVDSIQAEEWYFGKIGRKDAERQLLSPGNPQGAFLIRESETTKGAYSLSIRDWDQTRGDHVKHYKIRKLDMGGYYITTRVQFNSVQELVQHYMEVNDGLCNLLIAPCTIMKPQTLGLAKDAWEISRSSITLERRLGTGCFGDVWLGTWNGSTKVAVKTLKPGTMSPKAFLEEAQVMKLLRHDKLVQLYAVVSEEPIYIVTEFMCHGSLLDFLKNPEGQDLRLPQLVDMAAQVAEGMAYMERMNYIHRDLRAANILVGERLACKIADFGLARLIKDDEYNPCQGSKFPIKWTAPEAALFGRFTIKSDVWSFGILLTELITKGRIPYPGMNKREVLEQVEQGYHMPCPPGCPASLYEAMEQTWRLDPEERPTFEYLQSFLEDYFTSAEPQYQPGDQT
pIC50: −log10 of the molar value.
Endpoint: pIC50

Lookup: What reported pIC50 corresponds to CC(C)(C)NS(=O)(=O)c1cncc(-c2ccn3nc(N)nc3c2)c1 on Tyrosine-protein kinase Fgr (Homo sapiens, UniProt P09769)?
Found: < 5.00

====

Tested on: Activin receptor type-1B (Homo sapiens, UniProt P36896)
Sequence (P36896 whole entry): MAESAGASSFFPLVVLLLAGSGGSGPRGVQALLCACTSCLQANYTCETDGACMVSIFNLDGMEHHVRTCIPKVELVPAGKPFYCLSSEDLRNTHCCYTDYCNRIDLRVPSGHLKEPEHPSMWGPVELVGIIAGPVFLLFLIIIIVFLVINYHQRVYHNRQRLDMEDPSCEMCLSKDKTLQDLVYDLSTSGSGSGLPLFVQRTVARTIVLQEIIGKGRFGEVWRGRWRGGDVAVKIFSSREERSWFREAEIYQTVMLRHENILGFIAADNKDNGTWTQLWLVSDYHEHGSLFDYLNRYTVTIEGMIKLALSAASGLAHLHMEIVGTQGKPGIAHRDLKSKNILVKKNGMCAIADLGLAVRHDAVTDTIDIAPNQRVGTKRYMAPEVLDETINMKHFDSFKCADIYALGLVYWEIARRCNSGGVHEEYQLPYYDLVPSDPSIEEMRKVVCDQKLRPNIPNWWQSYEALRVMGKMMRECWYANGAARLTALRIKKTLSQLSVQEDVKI
pIC50: −log10 of the molar value.
Endpoint: pIC50

Lookup: Look at this molecule and give its reported pIC50. CC(C)(C)NS(=O)(=O)c1cncc(-c2ccn3nc(N)nc3c2)c1
Found: < 5.00
